This section presents binders with their documented Abs 630 (100 nM) values.
Tested Target: T1, human IL-10 receptor (hIL-10R alpha and beta chains) on HEK-Blue IL-10 reporter cells (human, UniProt Q13651 22-578; Q08334 20-325)
T1 sequence 1: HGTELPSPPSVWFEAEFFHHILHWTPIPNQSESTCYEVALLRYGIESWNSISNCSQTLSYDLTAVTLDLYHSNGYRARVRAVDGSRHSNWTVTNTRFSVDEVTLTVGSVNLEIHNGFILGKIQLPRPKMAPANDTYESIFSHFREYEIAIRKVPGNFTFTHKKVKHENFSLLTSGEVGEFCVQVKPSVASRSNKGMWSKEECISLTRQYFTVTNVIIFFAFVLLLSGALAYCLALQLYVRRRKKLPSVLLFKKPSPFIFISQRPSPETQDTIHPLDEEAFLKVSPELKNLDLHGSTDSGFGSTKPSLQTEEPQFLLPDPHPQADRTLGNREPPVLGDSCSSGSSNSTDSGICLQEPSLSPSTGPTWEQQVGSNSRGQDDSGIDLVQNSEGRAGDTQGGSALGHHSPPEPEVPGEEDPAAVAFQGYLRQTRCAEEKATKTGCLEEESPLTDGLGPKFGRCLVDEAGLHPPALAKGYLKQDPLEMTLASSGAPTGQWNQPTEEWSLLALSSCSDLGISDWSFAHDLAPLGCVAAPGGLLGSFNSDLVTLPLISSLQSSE
T1 sequence 2: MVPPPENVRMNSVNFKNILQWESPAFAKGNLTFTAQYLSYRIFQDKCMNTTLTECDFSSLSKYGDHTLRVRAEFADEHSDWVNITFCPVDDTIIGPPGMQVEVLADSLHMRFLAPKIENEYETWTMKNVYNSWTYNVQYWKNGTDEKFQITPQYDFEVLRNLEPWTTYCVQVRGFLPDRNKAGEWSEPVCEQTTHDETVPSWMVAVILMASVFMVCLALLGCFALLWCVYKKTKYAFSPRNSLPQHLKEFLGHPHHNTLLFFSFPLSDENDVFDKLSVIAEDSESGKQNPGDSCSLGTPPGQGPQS
Assay Notes: cell-based or functional assay
Endpoint Label: Abs 630 (100 nM) (Abs 630)

[[record]]
binder = "IL10R binding molecule of SEQ ID NO: 256 (bispecific antibody) QVQLQESGGGSVQAGGSLRLSCAASRYLYSIDYMAWFRQSPGKEREPVAVIYTASGATFYPDSVKGRFTISQDNAKMTVYLQMNSLKSEDTAMYYCAAVRKTDSYLFDAQSFTYWGQGTQVTVSSGGGSQVQLQESGGGSVQAGGSLRLSCAASGYTYSSGCMGWFRQAPGKEREAVAAINSDGSTSYADSVKGRFTISKDNAKNTLYLQMNSLKPEDTAMYYCAAEPYCSGGYPRWSVAEFGYWGQGTQVTVSSASHHHHHH"
unit_spec = "Abs 630"
value = 0.39

[[record]]
binder = "IL10R binding molecule of SEQ ID NO: 308 (bispecific antibody) QVQLQESGGGSVQAGGSLRLSCAASGYTYSSGCMGWFRQAPGKEREAVAAINSDGSTSYADSVKGRFTISKDNAKNTLYLQMNSLKPEDTAMYYCAAEPYCSGGYPRWSVAEFGYWGQGTQVTVSSGGGSQVQLQESGGGSVQAGGSLRLSCAVSGYAYSTYCMGWFRQAPGKEREGVAAIDSGGSTSYADSVKGRFTISKDNAKNTLYLRMNSLKPEDTAMYYCAAVPPPPDGGSCLFLGPEIKVSKADFRYWGQGTQVTVSSASHHHHHH"
unit_spec = "Abs 630"
value = 0.39

[[record]]
binder = "IL10R binding molecule of SEQ ID NO: 292 (bispecific antibody) QVQLQESGGGSVQAGGSLRLSCGASGYTYSSYCMGWFRQVPGKEREGVAVIDSDGSTSYADSVKGRFTISKDNGKNTLYLQMNSLKPEDTAMYYCAADLGHYRPPCGVLYLGMDYWGKGTQVTVSSGGGSQVQLQESGGGSVQAGGSLRLSCAASGYTYSSYCMGWFRQAPGKEREGVAHIDSDGSTSYADSVKGRFTISKDNAKNTLYLQMNSLKPEDTAMYYCAADPIPGPGYCDGGPNKYWGQGTQVTVSSASHHHHHH"
unit_spec = "Abs 630"
value = 0.47

